molecular target: human ACVR2A (human, UniProt P27037 20-135, limits assumed); assay: ELISA; also: test concentration or dose not given here
Sequence (P27037 20-135 limits assumed): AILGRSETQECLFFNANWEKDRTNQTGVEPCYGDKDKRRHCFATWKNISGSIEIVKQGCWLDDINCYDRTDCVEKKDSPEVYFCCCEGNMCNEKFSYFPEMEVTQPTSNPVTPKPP
Collected optical density values appear next to each entry.
Give a bare numeral; the unit OD is implied.

The binder listed as 373_E04 (antibody, V domains shown, VH/VL only) VH: EVQLLESGGGLVQPGGSLRLSCAASGFTFDSYSMNWVRQAPGKGLEWVAGINYNGGYTSYADSVKGRFTISRDNSKNTLYLQMNSLRAEDTAVYYCARSATWHDTHLDYWGQGTLVTVSS VL: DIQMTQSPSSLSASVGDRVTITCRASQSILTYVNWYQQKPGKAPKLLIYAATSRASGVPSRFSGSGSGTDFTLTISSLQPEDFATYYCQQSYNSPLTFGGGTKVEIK has a reported optical density of 3.56

So for 371_G03 (antibody, V domains shown, VH/VL only) VH: EVQLLESGGGLVQPGGSLRLSCAASGFTFSSYGMNWVRQAPGKGLEWVANINYNGGYKGYADSVKGRFTISRDNSKNTLYLQMNSLRAEDTAVYYCARSATWHDTHLDYWGQGTLVTVSS VL: DIQMTQSPSSLSASVGDRVTITCRASQSIVTYVNWYQQKPGKAPKLVIYAATSLASGVPSRFSGSGSGTDFTLTISSLQPEDFATYYCQQSYNLPLTFGGGTKVEIK , the logged optical density turned out to be 3.12

// sample 376_B07 (antibody, V domains shown, VH/VL only) VH: EVQLLESGGGLVQPGGSLRLSCAASGFTFDSYSMNWVRQAPGKGLEWVSGINYNSGYTSYADSVKGRFTISRDNSKNTLYLQMNSLRAEDTAVYYCARSATWHDTALDYWGQGTLVTVSS VL: DIQMTQSPSSLSASVGDRVTITCRASQSILSYLNWYQQKPGKAPKLVIYYVSNRASGVPSRFSGSGSGTDFTLTISSLQPEDFATYYCQQSYDNPLTFGGGTKVEIK , its optical density was 3.73

For 374_D12 (antibody, V domains shown, VH/VL only) VH: EVQLLESGGGLVQPGGSLRLSCAASGFTFDSYSMNWVRQAPGKGLEWVSGINYNGGYTGYADSVKGRFTISRDNSKNTLYLQMNSLRAEDTAVYYCARSATWHDTHLDYWGQGTLVTVSS VL: DIQMTQSPSSLSASVGDRVTITCRASQSIVSYVNWYQQKPGKAPKLVIYAATSRASGVPSRFSGSGSGTDFTLTISSLQPEDFATYYCQQSYDLPLTFGGGTKVEIK the binder record lists optical density as 3.55
